- ASSAY_NAME: yeast display, Sf9 membrane polyspecificity reagent, FACS + sequencing; frameworks hold sequencing errors

{"columns": ["ORDERED_RESIDUES", "polyreactivity (PSR sort gate)"],
 "data": [
  ["QVQLVESGGGLVQAGGSLRLSCAASGRTFRYNAMGWYRQAPGKERELVAAINWNGGSTYYADSVKGRFTISRDNAKNTVYLQMNSLKPEDTAVYYCNADFYHRYDWGQGTQVTVSS", "high polyreactivity"],
  ["QVQLVESGGGLVQAGGSLRLICAASGIIFPFYVMGWYRQAPGKERELVAAITWSGDGTYYADSVKGRFTISRDNAKNTVYLQMNSLKPEDTAVYYCAAQWYYGGVKYYYWGQGTIVTVSS", "low polyreactivity"],
  ["QVQLEESGGGLVQAGGSLRLSCAASGSTFRAYAMGWYRQAPGKERELVAAITSTTDTYYADSVKGRFTISRDNAKNTVYLQMNSLKPEDTAVYYCASVWVWTYDYWGQGTQVTVSS", "low polyreactivity"],
  ["QVQLVESGGGLVQAGGSLRLSCAASGNTFSPNAMGWYRQAPGKERELVAALDSRDGITYYADSVKGRFTISRDNAKNTVYLQMNSLKPEDPAVYYCNAEGSYPDVSPVLGYDYWGQGTQVTVSS", "low polyreactivity"],
  ["QVQLVESGGGLVQAGGSLRLSCAASGFTFNWYTMGWYRQAPGKERELVAAIRGSGSRTYYADSVKGRFTISRDNAKNTVYLQMNSLKPEDTAVYYCATDYGLYSTWGRYYRYRYDYWGQGTQVTVSS", "high polyreactivity"],
  ["QVQLVESGGGLVQAGGSLRLSCAASGGTFGVNAMGWYRQAPGKERELVAAISSSGGRTYYADSVKGRFTISRDNAKNTVYLQVNSLKPEDTAVYYCAARNYFWGQGTQVTVSS", "low polyreactivity"],
  ["QVQLVESGGGLVQAGGSLRLSCAASGFIFEHYAMGWYRQAPGKERELVAAISRTGGRTYYADSVKGRFTISRDNAKNTVYLQMNSLKPEDTAVYYCAATAYSRLGVSSDYWGQGTQVTVSS", "high polyreactivity"],
  ["QVQLVESGGGLVQAGGSLRLSCAASGRIFYPYAMGWYRQAPGKERELVAAIRWSSGNTRYADSVKGRFTISRDNAKNTVYLQMNSLKPEDTAVYYCAAPAVHILQTVSLTPRPLDYWGQGTQVTVSS", "high polyreactivity"],
  ["QVQLVESGGGLVQPGRSLRLSCAASGFTFYIYAMGWYRQAPGKERELVAAISGRGSSTYYADSVKGRFTISRDNAKNSVYLQMNSQTPEDTAVYYCAAGKSKYGVRGDYWGQGTQVTVSS", "high polyreactivity"],
  ["QVQHVESVGGLVQAGGSLRVSCAASGTIFTFYTMGRYRPAPGKERELVAAISQTGGRTYYGDSVKGRFTISRDNAKNTVYLQMNSLKPEDTAVYYCAASVGRYAGNYWGQGTQVTVSS", "high polyreactivity"],
  ["QVQLVESGGGLVQAGVSLRLSCAASGRTFGHYTMGWYRQAPGKERELVARISRTGSTKYADSVKGPFTISRDNAKNTVYLQMNSLKPEDTAVYYCARVQAGGYGERVYAYHYDYWGQGTQVTVSS", "high polyreactivity"]
]}

* * *

- ASSAY_NAME: yeast display, Sf9 membrane polyspecificity reagent, FACS + sequencing; frameworks hold sequencing errors
ASSAY_METRIC: polyreactivity (PSR sort gate)

{"columns": ["ORDERED_RESIDUES", "RESULT"],
 "data": [
  ["QVQLVESGGGLVQAGGSLRLSCAASGSTFKYYAMGWYRQAPGKERELVARISSGGRTYYADSVKGRFTISRDNAKNTVYLQMNSLKPEDTAVYYCNAQGYTTYRGDYWGQGTQVTVSS", "high polyreactivity"],
  ["QVQLEESGGGLVQAGGSLRLTCAACGSIFGPNAMGWYRQAPGKERELVAAIDSSDGSTYYADSVKGRFTISRDNAKNSVYLQMNSLKPEDTAVYYCADELGYIYYSYWWQYDYWGQGTQVTVSS", "high polyreactivity"]
]}

* * *

- ASSAY_NAME: yeast display, Sf9 membrane polyspecificity reagent, FACS + sequencing; frameworks hold sequencing errors

{"columns": ["ORDERED_RESIDUES", "polyreactivity (PSR sort gate)"],
 "data": [
  ["QVQLVESGGGLVQAGGRLRLSSAASGLTFPYYAMGWYRQAPGKERELVAVITTSTGTTYYADSVKGRFTISRDNAKNTVYLQMNSLKPEVTAVYYCATDTGAYWYSLYDYWGQGTQVTVSS", "low polyreactivity"],
  ["QVQLVESGGGLVQAGGSLRLSCAASGITSVVYAMGWYRQAPGKERELVAAISSAGSTYYADSVKGRFTISRDNAKNTVYLQMNSLKPEDTAVYYCAAAGYPQTYLYYYWGQGTQVTVSS", "low polyreactivity"],
  ["QVQLVESGGGLVQAGGSLRLSCAASGRIFGVNARGWYRQAPGKERELVATITRGGNTNYADSVKGRFTISRDNAKNTVYLQMNSLKPEDTAVYYCNADRYRTFSRLPYGEYEYWGQGTQVTVSS", "low polyreactivity"],
  ["QVQLVESGGGIVQAGGSLRLSCAGSGSIVSGYTMGWYRQEPGKERELVAAITRSGGRTYYADSVKGRFTISRDYAKNTVYLQMNSLKPEDTSVYYCAAVDRRGANYNYWGQGTQVTVSS", "high polyreactivity"],
  ["QVQLVESGGGLVQAGGSLRLSCAASGSIFPLYAMGWYRQAPGKERELVAAITSNGGRTYYADSVKGRFTISRDNAKNTVYLQMNSLKPEDTAVYYCNKYLLDYRRGRSDYWGQGTQVTVSS", "low polyreactivity"],
  ["QVQLVESGGGLVQAGGSLRVSCAASGFIFSYNAMGWYRQEPGKERELVAAMSSGGGSTYYADSVKGRFTISRDNAKNTVYLQMNSLKPEDTAVSYCAARVAYTFGYWGQGTQVTVSS", "high polyreactivity"],
  ["QVQLVESGGGLVQAGGSLRLSCASSGYTFTIYAMGWYRQAPGKERELVAAITGRGGRTNYADSVKGRFTISRDNAKNTVYLQIYRLIPVDTAVYYCNAVTKVVYHGPYGYDYWGQGTQVTVSS", "high polyreactivity"],
  ["QVQLVESGGGLVLAGGSLRLSCAASGFTFLDNAMGWYRQAPGKERELVAAISGIGGSTSYADSVKGRFTISRDNAKNTVYLQMNSLKPEDTAVYYCATRLYKWSFTPKFEMDHWGQGTQVTVSS", "low polyreactivity"],
  ["QVQLVESGGGLVQAGGSLRLSCAASGRISRIYAMGWYRQAPGKERELVAAIRGRGGSTYYADSVKGRFTISRDNAKNTVYLQMNSLKPEVTAVYYCAADGWARYEYWGQGTQVTVSS", "high polyreactivity"],
  ["QVQLVESGGGIVQAGGSLRLSCAASGSTFYSYAMGFYRQAPGKERELVAAISWDGGRTYYADSVKGRFTISRDNAKNTVYLQMNSLKPEDTAVYYCAAAYPTYRHYYWGQGTQVTVSS", "low polyreactivity"],
  ["QVQLVESGGGLVQAGGSLRLSCAASGLIFVPYAMGWYIQAPGKERELVAAISRSGGSTYYADSVKGRFTISRDNAKNTVYLQMNSLKPEDTAVYYFATLNYYGEVEYWGQGTQVTVSS", "high polyreactivity"]
]}

* * *

- ASSAY_NAME: yeast display, Sf9 membrane polyspecificity reagent, FACS + sequencing; frameworks hold sequencing errors

{"columns": ["ORDERED_RESIDUES", "polyreactivity (PSR sort gate)"],
 "data": [
  ["QVQHVESGGGLVQAGGSLRLSCAASGSIFVWYAMGWYRQAHGKERELVAAINWSGGRTYYADSVKGRFTISRDNAKNTVYLQMNSLKPEDTAVYYCAAELRRSDTYNYWGQGTQVTVSS", "high polyreactivity"],
  ["QVQLVESGGGLVQAGGSLRLSCAASGFTFTYYTMGWYRQAPGKESELVAAISWSGGRTYYADSVKGRFTISRDNAKNTVYLQMNSLKPEDTAVYYCAAVYSSYYSSSYGYWGQGTQVTVSS", "high polyreactivity"],
  ["QVQLVESGGGLVQAGGSLRLSCAASGSIFYQYAMGWYRQAPGKERELVAGITWSGGSTYYADSVKGRFTISRDNAKYTVYLQMNSLKPEDTAVFYCAAQYFWYVYSYDYWGQGTQVTVSS", "high polyreactivity"],
  ["QVQLVESGGGLGQAGGSLRLSCAASGFTYYYYAMGWYIQAPRKDRELVAAISGGGGSTYYADSVKGRFTLSRDNAKNTVYLQMNSLKQVDTAVYYCAAVGSWRYYYDYDYWGQGTQVNVSS", "high polyreactivity"],
  ["QVQLVESGGGLVQAGGSLSLSCAASGSTFVPYAMGWYRPAPGKERELVAAISSTGGSTYYADSVKGRFTISRDNAKNTVYLQMNSLKAEDTAVYYCNALAKIRYGQINKGYYWGQGTQVTVSS", "high polyreactivity"],
  ["QVQLVESGGGLVQAGGSLRLSCAASGNIFYIYAMGWYRQAPGKERELVASISGRGGRTYYADSVKGRFTISRDNAKNTVYLQMNSLKPEDTAVYYCAADGYRTYSEMDYWGQGTQVTVSS", "high polyreactivity"],
  ["QVQLVESGGGLVQAGGSLRLSCAASGSTFLTYAMGWYRQAPGKERELVASITSTGRTYADSVKGRFTISRDNAKNTVYLQMNSLKPEDTAVYYCNADVTAFRRSFLRKYYSYDSWGQGTQVTVSS", "low polyreactivity"],
  ["QVQLVESGGGLVQAGGSLRLSCAASGLIFPSYAMGWYRQAPGKERELVATINRGSRTNYADSVKGRFTISRDNAKNTVYLQMNSLKPEDTAVYYCAAHYTTFIPSPDGDYLGQGTQVTVSS", "low polyreactivity"],
  ["QVQRVESGGGLVQAGGTLRLSCAASGRIFWYNAMGWSRQAPGKERELVAVISTRGGRTYYADSVKGRFTISRDNAKNTVYLQMNSLKPEDTAVYYCAAEFLNKAVGGVTSIYDSWGQGTQVTVSS", "low polyreactivity"],
  ["QVQLVESGGGLVQAGGSLRLSCAASGNTFNVYAMGWYRQAPGKERELVAAITLSGGSTYYADSVKGRFTFSRDNAKNTVYLQMNSLKPEDTAVYYCNAEDDGTDYDYWGQGTEVTVSS", "low polyreactivity"],
  ["QVQLVESGGGLVQAGGSLRLSGAATGSIFKIMGWYRQAPGKERELVAAISSSVGNTYYADSVKGRFTISRDNAKNTVYLQMNSLKPEDTAVYYCAAQSKYYQYYSWGQRTQVTVSS", "high polyreactivity"]
]}

Reference for the values: the nanobody polyreactivity screen of Harvey et al. (2022)
